test system: MDA-MB-231; assay: Induction of apoptosis in human MDA-MB-231 cells assessed as early apoptotic cells after 72 hrs by Annexin-V/FITC staining based flow cytometry (reference value: 5.98%); assay type: functional
Activity reference
Give the quantity in %, number only.

The value of Activity measured for the compound C[C@]12CC[C@H]3[C@@H](C[C@@H]4O[C@@]45C[C@@H](O)CC[C@]35C)[C@@H]1CC[C@@]2(O)Cc1cccc[n+]1[O-] turned out to be 1.49

The value of Activity measured for the compound COC1=C2CC[C@@H]3[C@H](CC[C@]4(C)/C(=C/c5ccccn5)CC[C@@H]34)[C@@]2(C)CCC1=O turned out to be 0.11

The value of Activity measured for the compound C[C@]12CCC(=O)C(O)=C1CC[C@@H]1[C@@H]2CC[C@]2(C)C(=O)CC[C@@H]12 turned out to be 3.8

The value of Activity measured for the compound C[C@]12CC[C@H](O)[C@@H](O)C1=CC[C@@H]1[C@@H]2CC[C@@]2(C)[C@H]1CC[C@@]2(O)Cc1ccccn1 turned out to be 3.28

The value of Activity measured for the compound C[C@]12CC[C@H](O)C=C1CC[C@@H]1[C@@H]2CC[C@@]2(C)[C@H]1CC[C@@]2(O)Cc1ccccn1 turned out to be 13.5

The value of Activity measured for the compound C[C@]12CCC(=O)C(O)=C1C=C[C@@H]1[C@@H]2CC[C@@]2(C)[C@H]1CC[C@@]2(O)Cc1ccccn1 turned out to be 5.18

The value of Activity measured for the compound C[C@]12CC[C@H](O)C=C1CC[C@@H]1[C@@H]2CC[C@]2(C)/C(=C/c3ccccn3)CC[C@@H]12 turned out to be 1.81

---

Activity reference
tested on: MDA-MB-231; experiment: Cell cycle arrest in human MDA-MB-231 cells assessed as accumulation at G2/M phase at IC50 concentration after 72 hrs by flow cytometry (reference value: 10.4%); assay type: functional
Give the quantity in %, number only.

Answered cases to consult:
smiles_entry	target_or_system	Activity / %
C[C@]12CC[C@H]3[C@@H](C[C@@H]4O[C@@]45C[C@@H](O)CC[C@]35C)[C@@H]1CC[C@@]2(O)Cc1cccc[n+]1[O-]	MDA-MB-231	8.5
C[C@]12CCC=CC1=CC[C@@H]1[C@@H]2CC[C@@]2(C)[C@H]1CC[C@@]2(O)Cc1ccccn1	MDA-MB-231	8.8
C[C@]12CC[C@H](O)C=C1CC[C@@H]1[C@@H]2CC[C@]2(C)/C(=C/c3ccccn3)CC[C@@H]12	MDA-MB-231	10.7
C[C@]12CCC=CC1=CC[C@@H]1[C@@H]2CC[C@]2(C)/C(=C/c3ccccn3)CC[C@@H]12	MDA-MB-231	7.3
C[C@]12CCC(=O)C(O)=C1CC[C@@H]1[C@@H]2CC[C@]2(C)C(=O)CC[C@@H]12	MDA-MB-231	10.4
C[C@]12CC[C@H](O)[C@@H](O)C1=CC[C@@H]1[C@@H]2CC[C@@]2(C)[C@H]1CC[C@@]2(O)Cc1ccccn1	MDA-MB-231	4.7

Here is another molecule to look at.
The value of Activity measured for the molecule COC1=C2CC[C@@H]3[C@H](CC[C@]4(C)/C(=C/c5ccccn5)CC[C@@H]34)[C@@]2(C)CCC1=O turned out to be 8.6
